Definition: the class of an entry is the range in b0 (below 80 °C), b1 (80 °C to below 200 °C), b2 (200 °C or more) that contains its glass transition temperature.

compound: *CC1CCCC(CNC(=O)c2cccc(C(=O)N*)c2)C1 (repeat unit)
label value: b1

compound: *Nc1ccc(NC(=O)c2ccc(C(=O)c3ccc(C(*)=O)c(C(=O)O)c3)cc2C(=O)O)cc1 (repeat unit)
label value: b2

compound: *c1cccc(Oc2ccc(P(=O)(c3ccccc3)c3ccccc3)c(Oc3cccc(N4C(=O)c5ccc(Oc6ccc7c(c6)C(=O)N(*)C7=O)cc5C4=O)c3)c2)c1 (repeat unit)
label value: b2

compound: */C(C)=C(/*)SCCCCCCCCCC (repeat unit)
label value: b0

compound: *C(OC(F)(F)F)C(*)(F)F (repeat unit)
label value: b0

compound: *CCCCSS* (repeat unit)
label value: b0

compound: *Nc1ccc(Cc2ccc(NC(=O)/C=C/c3ccc(/C=C/C(*)=O)cc3)cc2)cc1 (repeat unit)
label value: b2

compound: *CCN(*)C(=O)CCCCCCCCCCC (repeat unit)
label value: b0

compound: *C(=O)Nc1ccc(Cc2ccc(NC(=O)c3ccc4c(c3)C(=O)N(c3cccc(P(=O)(c5ccccc5)c5cccc(N6C(=O)c7ccc(*)cc7C6=O)c5)c3)C4=O)cc2)cc1 (repeat unit)
label value: b2

compound: *c1cc(N2C(=O)c3ccc(-c4ccc5c(c4)C(=O)N(*)C5=O)cc3C2=O)c(O)cc1O (repeat unit)
label value: b2

compound: *=Cc1ccc(/C=N/c2c(-c3ccccc3)cc(-c3ccc(-c4cc(-c5ccccc5)c(N=*)c(-c5ccccc5)c4)cc3)cc2-c2ccccc2)cc1 (repeat unit)
label value: b2

compound: *Oc1ccc(CC(NC(=O)Cc2ccc(OC(=O)CCC(*)=O)cc2)C(=O)OCC)cc1 (repeat unit)
label value: b0

compound: *[Si](*)(CCCC)CCCCCC (repeat unit)
label value: b0

compound: *Oc1ccc(C2(c3ccc(OC(*)=O)cc3)CCCCC2)cc1 (repeat unit)
label value: b1

compound: *OP(=O)(Oc1c(Cl)cccc1Cl)Oc1c(Cl)c(Cl)c(*)c(Cl)c1Cl (repeat unit)
label value: b1

compound: *CC(*)Cc1ccc(C)cc1 (repeat unit)
label value: b0

----------
compound: *CC(*)c1ccc(-c2cccc3nsnc23)cc1 (repeat unit)
unit of measure: °C
glass transition temperature: 150.00

compound: *CC(COc1ccc(S(=O)(=O)c2ccc(O*)cc2)cc1)OC(C)=O (repeat unit)
unit of measure: °C
glass transition temperature: 130.00

compound: *C(=O)Nc1ccc(NC(=O)c2ccc3c(c2)C(=O)N(c2cccc(N4C(=O)c5ccc(*)cc5C4=O)c2)C3=O)cc1 (repeat unit)
unit of measure: °C
glass transition temperature: 341.00

compound: *CC(=O)Nc1ccc(Oc2ccc(Oc3ccc(NC(=O)CN4C(=O)c5ccc(C(=O)c6ccc7c(c6)C(=O)N(*)C7=O)cc5C4=O)cc3)cc2)cc1 (repeat unit)
unit of measure: °C
glass transition temperature: 230.00

compound: *CCOCCOCCOCCOC(=O)NCCCCCCNC(=O)O* (repeat unit)
unit of measure: °C
glass transition temperature: -17.00

compound: *c1ccc2c(c1)C(=O)N(c1cc(C(c3ccc(O)c(N4C(=O)c5ccc(C(*)(C(F)(F)F)C(F)(F)F)cc5C4=O)c3)(C(F)(F)F)C(F)(F)F)ccc1O)C2=O (repeat unit)
unit of measure: °C
glass transition temperature: 330.00

compound: *C(=O)Nc1ccc(Cc2ccc(N3C(=O)c4ccc(*)cc4C3=O)cc2)cc1 (repeat unit)
unit of measure: °C
glass transition temperature: 279.50

compound: *CCCC(C)(C)CNC(=O)CCCCC(=O)N* (repeat unit)
unit of measure: °C
glass transition temperature: 77.00

compound: */C(Cl)=C(/*)CCCC (repeat unit)
unit of measure: °C
glass transition temperature: 190.00

compound: *c1ccc(Oc2ccc(C(=O)c3ccc(C(=O)c4ccc(C(=O)c5ccc(Oc6ccc(-c7nc(-c8ccccc8)[nH]c7*)cc6)cc5)cc4)cc3)cc2)cc1 (repeat unit)
unit of measure: °C
glass transition temperature: 239.00

----------
List of glass transition temperature values.
quantity kind: glass transition temperature (°C)

compound: *O[Si](*)(C)CCC (repeat unit)
measurement: -120.00

compound: *C(=O)Nc1ccc(Oc2ccccc2-c2ccccc2Oc2ccc(NC(=O)c3ccc4c(c3)C(=O)N(c3cccc(N5C(=O)c6ccc(*)cc6C5=O)c3)C4=O)cc2)cc1 (repeat unit)
measurement: 237.00

compound: *c1ccc(Oc2ccc(C(C)(C)c3ccc(Oc4ccc(N5C(=O)c6ccc(-c7ccc8c(c7)C(=O)N(*)C8=O)cc6C5=O)cc4)cc3)cc2)cc1 (repeat unit)
measurement: 237.50

compound: *Oc1ccc(C(C)(CC)c2ccc(OC(=O)OC3C(C)(C)C(OC(*)=O)C3(C)C)cc2)cc1 (repeat unit)
measurement: 124.00

compound: *Oc1ccc(CC(NC(=O)Cc2ccc(OC(=O)CCCCC(*)=O)cc2)C(=O)OCCCCCC)cc1 (repeat unit)
measurement: 36.00

compound: *c1ccc(Oc2ccc(N3C(=O)c4cccc(Oc5ccc(Oc6cccc7c6C(=O)N(*)C7=O)cc5)c4C3=O)cc2)cc1 (repeat unit)
measurement: 254.00

compound: *CC(CCCCCCOc1ccc(/N=N/c2ccc(Cl)cc2)cc1)COC(=O)CCCCC(=O)O* (repeat unit)
measurement: 9.00

compound: *CC(*)CNc1ccc([N+](=O)[O-])c(C(F)(F)F)c1 (repeat unit)
measurement: 153.00

compound: *Oc1cccc(OC(=O)c2ccc(Oc3ccc(C(*)=O)cc3)cc2)c1 (repeat unit)
measurement: 159.00

compound: *OC(C)C(=O)NC(C)C(*)=O (repeat unit)
measurement: 57.7

compound: *OC(=O)CNC(=O)CCCCCCCCC(=O)NCC(=O)OC1COC2C(*)COC12 (repeat unit)
measurement: 66.00

compound: *OP(=O)(Oc1ccc([N+](=O)[O-])cc1)Oc1ccc(S(=O)(=O)c2ccc(*)cc2)cc1 (repeat unit)
measurement: 114.00

compound: *c1cc(Oc2c(C)cc(-c3cc(C)c(Oc4cc(N5C(=O)c6ccc(-c7ccc8c(c7)C(=O)N(*)C8=O)cc6C5=O)cc(C(F)(F)F)c4)c(C)c3)cc2C)cc(C(F)(F)F)c1 (repeat unit)
measurement: 281.10

compound: *CC(*)C(=O)OCc1ccc(C#N)cc1 (repeat unit)
measurement: 44.00

----------
List of glass transition temperature values.

compound: *Oc1ccc(OC(=O)c2ccc(C(*)=O)cc2Oc2ccc3ccccc3c2)cc1 (repeat unit)
glass transition temperature, °C: 102.00

compound: *C1c2cccc3cccc(c23)C1* (repeat unit)
glass transition temperature, °C: 250.00

compound: *c1ccc(Oc2ccc(C(C)(C)c3ccc(Oc4ccc(-c5nnc(*)n5-c5ccc(C)cc5)cc4)cc3)cc2)cc1 (repeat unit)
glass transition temperature, °C: 205.00

compound: *c1ccc2c(c1)C(=O)N(c1ccc(Oc3ccc(N4C(=O)c5ccc(C(F)(F)C(F)(F)C(F)(F)C(F)(F)C(F)(F)C(F)(F)C(*)(F)F)cc5C4=O)cc3)cc1)C2=O (repeat unit)
glass transition temperature, °C: 178.00

compound: *CC(C)(C)C1C(=O)N(c2c(C)cccc2C)C(=O)C1* (repeat unit)
glass transition temperature, °C: 237.00

compound: *Oc1ccc(C(c2ccc(Oc3ccc(C(=O)c4ccccc4-c4ccccc4C(=O)c4ccc(*)cc4)cc3)cc2)(C(F)(F)F)C(F)(F)F)cc1 (repeat unit)
glass transition temperature, °C: 178.50

compound: *CC(*)(C)C(=O)OCCC(F)(F)C(F)(F)C(F)(F)C(F)(F)F (repeat unit)
glass transition temperature, °C: 23.00

compound: *Nc1ccc(Cc2ccc(NC(=O)c3cccc(C(*)=O)c3)cc2)cc1 (repeat unit)
glass transition temperature, °C: 265.00

----------
Rule: glass transition temperature under 80 °C gives condition not met, otherwise condition met.

molecule: */C=C/C1CC(*)C([Si](C)(C)C)C1 (repeat unit)
label value: condition met

molecule: *O[Si](*)(C)CCCOc1ccc(-c2ccc(C#N)cc2)cc1 (repeat unit)
label value: condition not met

molecule: *c1ccc(Oc2ccc(N3C(=O)c4ccc(Oc5ccc(Sc6ccc(Oc7ccc8c(c7)C(=O)N(*)C8=O)cc6)cc5)cc4C3=O)cc2)cc1 (repeat unit)
label value: condition met

molecule: *CCCC(=O)Nc1ccc(Oc2ccc(NC(=O)CCCN3C(=O)c4ccc(C(=O)c5ccc6c(c5)C(=O)N(*)C6=O)cc4C3=O)cc2)cc1 (repeat unit)
label value: condition met

molecule: *Oc1ccc(C(=O)NNC(=O)c2ccc(*)cc2)cc1 (repeat unit)
label value: condition met

molecule: *CCN(*)C(=O)CC(C)C (repeat unit)
label value: condition not met

molecule: *c1ccc(Oc2ccc(-c3cnnc(-c4cccc(-c5ncc(*)nn5)n4)n3)cc2)cc1 (repeat unit)
label value: condition met

molecule: *OCCOC(=O)CCCCC(=O)OCCOc1nc(-c2ccc(OC)cc2)nc(*)c1-c1ccc(OC)cc1 (repeat unit)
label value: condition not met

molecule: *CC(COc1ccc(C(C)(C)c2ccc(O*)cc2)cc1)OC(=O)c1ccccc1 (repeat unit)
label value: condition not met

molecule: *c1ccc(Oc2ccc(Sc3ccc(Oc4ccc(N5C(=O)c6ccc(Oc7ccc(Sc8ccc(Oc9ccc%10c(c9)C(=O)N(*)C%10=O)cc8)cc7)cc6C5=O)cc4)cc3)cc2)cc1 (repeat unit)
label value: condition met

molecule: *CC(*)c1ccccc1C(=O)O (repeat unit)
label value: condition met

molecule: *Nc1ccc(*)cc1 (repeat unit)
label value: condition not met

molecule: *CCCCCCOC(=O)c1cc(/N=N/c2ccc(OCC)cc2)ccc1-c1ccc(/N=N/c2ccc(OCC)cc2)cc1C(=O)O* (repeat unit)
label value: condition met

molecule: *c1cccc(OCCCCCCCCCCCOC(=O)c2ccc(C(=O)OCCCCCCCCCCCOc3cccc(-c4nnc(*)s4)c3)cc2)c1 (repeat unit)
label value: condition not met

molecule: *CC(COCCCC)O* (repeat unit)
label value: condition not met

molecule: *c1ccc(Oc2ccc(N3C(=O)c4ccc(Sc5ccc6c(c5)C(=O)N(*)C6=O)cc4C3=O)cc2)cc1 (repeat unit)
label value: condition met

molecule: *CC(*)(C)C(=O)OCC1COC(=O)O1 (repeat unit)
label value: condition met

molecule: *CC(C)(/C=C(/*)C)C(=O)OC (repeat unit)
label value: condition not met

molecule: *CC(CS(=O)(=O)C(C)C)O* (repeat unit)
label value: condition not met

molecule: *Nc1ccc(Cc2ccc(NC(=O)NCCCCCCCCCNC(*)=O)cc2)cc1 (repeat unit)
label value: condition not met

molecule: *NNC(=O)c1ccccc1C(=O)Nc1cccc(/C=C2\CC/C(=C\c3cccc(NC(=O)c4ccccc4C(*)=O)c3)C2=O)c1 (repeat unit)
label value: condition met

molecule: *Oc1ccc(C(C)(C)c2ccc(OC(*)=O)c(C)c2)cc1C (repeat unit)
label value: condition met

molecule: *Oc1ccc2cc(Oc3ccc(C(=O)c4ccc(*)cc4)cc3)ccc2c1 (repeat unit)
label value: condition met

molecule: *CCCCCCCCOc1ccc(NC(=O)c2cccc(C(=O)Nc3ccc(O*)cc3)c2)cc1 (repeat unit)
label value: condition met

molecule: */C=C/c1cc(CCCCCCCCCCCCCCCC)c(/C=C/c2nc(*)c(C#N)c(/C=C/c3ccc(N(c4ccccc4)c4ccccc4)cc3)c2C#N)cc1CCCCCCCCCCCCCCCC (repeat unit)
label value: condition met

molecule: *c1ccc(Cc2ccc(-n3nccc3-c3cccc(-c4ccnn4*)c3)cc2)cc1 (repeat unit)
label value: condition met

molecule: */C=C(\C#N)C(=O)OCCCCCCOC(=O)/C(C#N)=C/c1ccc2c(c1)c1cc(*)ccc1n2CCCCCCCCCCCOc1ccc(/C=C/c2ccc([N+](=O)[O-])cc2)cc1 (repeat unit)
label value: condition met

molecule: *CCCCCCCCCCCCC(=O)O* (repeat unit)
label value: condition not met

// data source = the PolyMetriX glass transition set
